system: Sporothrix globosa; assay: Antifungal activity against Sporothrix globosa after 72 hrs by microdilution method; type: functional
Numbered stars: 1 amine (or outer) side, 2 acyl side, 3 side chain; on linkers, the order of the positions; unused ones are H or OH. Bridge positions count the residues as written; N and C are the ends. Square brackets hold non-standard residues; d marks the D form. Peptide text beside a SMILES is read from it. * marks the point of attachment. hTyr(3S-OH,4S-OH,3'-OSO3H) = N[C@H](C(=O)O)[C@H](O)[C@@H](O)c1ccc(O)c(OS(=O)(=O)O)c1; Orn(4R-OH,5R-OH) = O=C([C@H](C[C@@H](O)[C@@H](O)N[*:3])N[*:1])[*:2]; Pro(3S-OH,4S-Me) = C[C@H]1CN[C@H](C(=O)O)[C@H]1O; X1 = CCCCCOc1ccc(-c2cc(-c3ccc(C(=O)*)cc3)no2)cc1; Gln(3R-OH) = NC(=O)C[C@@H](O)[C@H](N)C(=O)O; Hyp = O=C(O)[C@@H]1C[C@@H](O)CN1
# maps each entry to its log10 MIC50
Please be aware that the numbers have been log10-transformed from MIC50 in µg/mL.

>>> observed_measurement("OC(Cn1cncn1)(Cn1cncn1)c1ccc(F)cc1F")
2.11

// sample Nc1nc(=O)[nH]cc1F , its log10 MIC50 was 1.81

// sample CC[C@@H]([C@H](C)O)n1ncn(-c2ccc(N3CCN(c4ccc(OC[C@@H]5CO[C@@](Cn6cncn6)(c6ccc(F)cc6F)C5)cc4)CC3)cc2)c1=O , its log10 MIC50 was 0.30

// sample CCCCCOc1ccc(-c2cc(-c3ccc(C(=O)N[C@H]4C[C@@H](O)[C@@H](O)NC(=O)[C@@H]5[C@@H](O)[C@@H](C)CN5C(=O)[C@H]([C@H](O)CC(N)=O)NC(=O)[C@H]([C@H](O)[C@@H](O)c5ccc(O)c(OS(=O)(=O)O)c5)NC(=O)[C@@H]5C[C@@H](O)CN5C(=O)[C@H]([C@@H](C)O)NC4=O)cc3)no2)cc1 [MICAFUNGIN] (X1-[Orn(4R-OH,5R-OH)]T[Hyp][hTyr(3S-OH,4S-OH,3'-OSO3H)][Gln(3R-OH)][Pro(3S-OH,4S-Me)]; lactam 1-C) , its log10 MIC50 was 2.41

// sample C[C@@H](c1nc(-c2ccc(C#N)cc2)cs1)[C@](O)(Cn1cncn1)c1ccc(F)cc1F , its log10 MIC50 was 0.90

Data origin, for the record: ChEMBL document CHEMBL1153558
